Reference source for all entries: PubChem BioAssay AID651787

Experiment: nonselective calcium mobilization agonists, CHO-Ga16 cells, counter-screen for hTAAR1 agonist project, cell-based, fluorescence, CHO-Ga16 parental line (AID 651787);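 also: 0% = DMSO wells and 100% = maximal ATP response on the peak over basal ratio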
Conditions: Fluo-8 calcium fluorescence, at 3 µM, stronger effect = higher value, normalized to maximal ATP response, DMSO zero
In all, about 2,400 compounds went through this assay and about 1,200 (50%) were called active. The set was probably picked from earlier hits. Only a sample is shown.
assay metric: activation

Field: example entries. Status: answers known.
compound structure: Cc1cc2nc3c(=O)[nH]c(=O)nc-3n(C[C@H](O)[C@H](O)[C@H](O)CO)c2cc1C
activation: 138% (active)

compound structure: S=C(Nc1ccc(Br)cc1)NC1CCN(Cc2ccccc2)CC1
activation: 22.9% (active)

compound structure: COc1ccc(OC)c(NC(=S)N2CCc3ccccc3C2)c1
activation: 0.03% (inactive)

With those in mind, consider the next compound.
**Query** I would be grateful if you could share the reported activation for Fc1ccc(NC(=S)N2CCc3[nH]c4ccccc4c3C2)cc1 .
**Result** 11.5% (active)
